# target_under_test: furin, P09958;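 note: purified furin at 1:10 enzyme:substrate in 50 mM HEPES pH 7.5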
# Sequence (P09958 whole entry): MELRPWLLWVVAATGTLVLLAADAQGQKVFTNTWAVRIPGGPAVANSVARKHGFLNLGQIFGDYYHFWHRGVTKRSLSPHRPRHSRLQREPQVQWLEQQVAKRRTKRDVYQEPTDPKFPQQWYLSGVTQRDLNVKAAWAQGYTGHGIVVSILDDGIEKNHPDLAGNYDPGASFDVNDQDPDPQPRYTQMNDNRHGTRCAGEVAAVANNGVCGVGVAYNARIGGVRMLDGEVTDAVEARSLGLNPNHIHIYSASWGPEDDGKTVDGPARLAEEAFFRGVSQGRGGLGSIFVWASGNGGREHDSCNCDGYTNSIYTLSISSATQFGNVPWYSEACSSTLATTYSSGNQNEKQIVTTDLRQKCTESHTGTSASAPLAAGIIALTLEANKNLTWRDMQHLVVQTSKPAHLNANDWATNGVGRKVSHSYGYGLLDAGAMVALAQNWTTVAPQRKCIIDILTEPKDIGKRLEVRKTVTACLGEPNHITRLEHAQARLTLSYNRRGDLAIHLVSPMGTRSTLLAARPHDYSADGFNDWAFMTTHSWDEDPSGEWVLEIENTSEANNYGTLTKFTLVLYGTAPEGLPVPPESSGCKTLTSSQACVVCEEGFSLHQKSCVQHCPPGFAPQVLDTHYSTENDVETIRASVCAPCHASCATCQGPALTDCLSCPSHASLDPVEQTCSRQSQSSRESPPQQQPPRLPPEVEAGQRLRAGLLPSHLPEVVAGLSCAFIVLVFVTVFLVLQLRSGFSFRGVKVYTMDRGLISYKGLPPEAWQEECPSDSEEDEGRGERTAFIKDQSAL
# assay_text: furin cleavage Z-score vs untreated control; higher = more cleavage, active = 3.5 or more, inactive = 1 or less, 8 variable residues between constant flanks
# condition_description: 30 min
The list shows a part of the results. The hit rate among all sequences tested is not known here.
Please provide measured furin cleavage Z-score for the entries that follow.
Numbers only.

Worked cases, answers included:
{"columns": ["biopolymer_sequence", "furin cleavage Z-score"],
 "data": [
  ["CAVSFRVGLHAGNASASA [HC1233]", 1],
  ["CARARRGVEVAGNASASA [FS-2647]", 6.09],
  ["CAVTGGSAGHAGNASASA [HC354]", -0.849],
  ["CARCRRGFGVAGNASASA [FS-1849]", 1.48],
  ["CARAERKTEIAGNASASA [FS-2881]", -0.302]
]}

Dear colleague, could you send me furin cleavage Z-score for each of the items below? Thanks.
1. CARKPRCGNPAGNASASA [FU7]
2. CARCKRGTGVAGNASASA [FS-2898]

Output:
[0.939, 5.78]
